Measured pEC50 values are reported for all entries that follow.
target: glucokinase (GK) (Homo sapiens)
Construct: I.D. No. 1 corresponds to residues 12-465 of glucokinase
Sequence (P35557 with tags, fused parts or gaps isoform P35557-2): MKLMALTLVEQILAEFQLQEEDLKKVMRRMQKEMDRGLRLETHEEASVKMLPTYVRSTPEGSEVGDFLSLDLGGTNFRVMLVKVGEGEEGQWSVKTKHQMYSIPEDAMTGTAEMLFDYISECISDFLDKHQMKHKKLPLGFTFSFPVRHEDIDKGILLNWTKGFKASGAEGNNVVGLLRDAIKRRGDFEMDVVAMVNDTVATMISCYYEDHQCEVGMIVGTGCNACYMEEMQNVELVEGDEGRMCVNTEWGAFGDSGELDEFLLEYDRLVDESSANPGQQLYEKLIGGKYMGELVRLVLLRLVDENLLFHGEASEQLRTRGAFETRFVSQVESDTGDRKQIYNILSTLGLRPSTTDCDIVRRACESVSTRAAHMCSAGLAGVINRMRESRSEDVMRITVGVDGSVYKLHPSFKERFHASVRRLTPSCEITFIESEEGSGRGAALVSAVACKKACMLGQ
method_description: enzymatic glucokinase activity assay (ATP consumption, KinaseGlo luminescence)
run_conditions: recombinant GK residues 12-465; 5 μM ATP, 5 mM Glucose; Kact = concentration that displays 50% of the maximal increase in GK activity; read-out: pKact
pEC50: −log10 of the molar value. Where a name gives a salt, the structure may show the parent alone.
property_name: pEC50

Cn1ccc(NC(=O)[C@@H](CC2CCOCC2)n2ccc(S(=O)(=O)C3CC3)cc2=O)n1 | < 4.80
COc1cccc(CC(C(=O)Nc2nccs2)n2c(C)cc(S(=O)(=O)C3CCCC3)cc2=O)c1 (centres unmarked) | < 4.80
O=C(Nc1ncc(Cl)s1)[C@H](CC1CCOCC1)n1ccc(S(=O)(=O)CC(F)(F)F)cc1=O | 4.80 to 5.80
O=C(Nc1nccs1)C(CC1CCCCC1)n1ccc(S(=O)(=O)C2CCCC2)cc1=O (centres unmarked) [Example 8, trifluoroacetic acid salt] | > 5.80
Cc1cc(-c2cccc(Cl)c2)cc(=O)n1[C@@H](CC1CCCCC1)C(=O)Nc1nccs1 | < 4.80
O=C(Nc1ncc(Cl)s1)C(CC1CCCCC1)n1cc(Cl)c2sccc2c1=O (centres unmarked) | < 4.80
O=C(Nc1ncc(F)s1)[C@@H](CC1CCOCC1)n1ccc(S(=O)(=O)C2CC2)cc1=O | < 4.80
O=C(Nc1ncc(Cl)s1)C(CC1CCOCC1)n1ccc(S(=O)(=O)CC(F)(F)F)cc1=O (centres unmarked) | < 4.80
